target.desc: HLA-A11 on COS7/A11 cells expressing the KRAS G12V minigene (23-mer SEQ ID NO: 120) (human, UniProt A*11:01)
measurement.protocol: cell-based or functional assay
quantity: IFN-γ, PBL + Cos7/A11 minigene transfectant (pg/mL)
Enter your answer as a number in pg/mL; do not include the unit.

State, in one line, measured IFN-γ, PBL + Cos7/A11 minigene transfectant of TRAV19*01/TRBV13-1*02 murine anti-KRAS G12V TCR (SEQ ID NOs: 145 and 146) (TCR, V domains shown) V domain 1: GQQVKQSSPSLTVQEGGILILNCDYENDMFDYFAWYKKYPDNSPTLLISVRSNVDKREDGRFTVFLNKSGKHFSLHITASQPEDTAVYLCAAGDSGGSNYKLTFGKGTLLTVTP V domain 2: EAAVTQSPRNKVTVTGGNVTLSCRQTNSHNYMYWYRQDTGHGLRLIHYSYGAGNLQIGDVPDGYKATRTTQEDFFLLLELASPSQTSLYFCASASWGGYAEQFFGPGTRLTVLE 18100
